This collection of values is drawn from patent US20230257372A1.

Biological target: human recombinant HDAC6 (Homo sapiens, UniProt Q9UBN7)
Construct: purchased Calbiochem Inc. 382180
Sequence (Q9UBN7 1-1215): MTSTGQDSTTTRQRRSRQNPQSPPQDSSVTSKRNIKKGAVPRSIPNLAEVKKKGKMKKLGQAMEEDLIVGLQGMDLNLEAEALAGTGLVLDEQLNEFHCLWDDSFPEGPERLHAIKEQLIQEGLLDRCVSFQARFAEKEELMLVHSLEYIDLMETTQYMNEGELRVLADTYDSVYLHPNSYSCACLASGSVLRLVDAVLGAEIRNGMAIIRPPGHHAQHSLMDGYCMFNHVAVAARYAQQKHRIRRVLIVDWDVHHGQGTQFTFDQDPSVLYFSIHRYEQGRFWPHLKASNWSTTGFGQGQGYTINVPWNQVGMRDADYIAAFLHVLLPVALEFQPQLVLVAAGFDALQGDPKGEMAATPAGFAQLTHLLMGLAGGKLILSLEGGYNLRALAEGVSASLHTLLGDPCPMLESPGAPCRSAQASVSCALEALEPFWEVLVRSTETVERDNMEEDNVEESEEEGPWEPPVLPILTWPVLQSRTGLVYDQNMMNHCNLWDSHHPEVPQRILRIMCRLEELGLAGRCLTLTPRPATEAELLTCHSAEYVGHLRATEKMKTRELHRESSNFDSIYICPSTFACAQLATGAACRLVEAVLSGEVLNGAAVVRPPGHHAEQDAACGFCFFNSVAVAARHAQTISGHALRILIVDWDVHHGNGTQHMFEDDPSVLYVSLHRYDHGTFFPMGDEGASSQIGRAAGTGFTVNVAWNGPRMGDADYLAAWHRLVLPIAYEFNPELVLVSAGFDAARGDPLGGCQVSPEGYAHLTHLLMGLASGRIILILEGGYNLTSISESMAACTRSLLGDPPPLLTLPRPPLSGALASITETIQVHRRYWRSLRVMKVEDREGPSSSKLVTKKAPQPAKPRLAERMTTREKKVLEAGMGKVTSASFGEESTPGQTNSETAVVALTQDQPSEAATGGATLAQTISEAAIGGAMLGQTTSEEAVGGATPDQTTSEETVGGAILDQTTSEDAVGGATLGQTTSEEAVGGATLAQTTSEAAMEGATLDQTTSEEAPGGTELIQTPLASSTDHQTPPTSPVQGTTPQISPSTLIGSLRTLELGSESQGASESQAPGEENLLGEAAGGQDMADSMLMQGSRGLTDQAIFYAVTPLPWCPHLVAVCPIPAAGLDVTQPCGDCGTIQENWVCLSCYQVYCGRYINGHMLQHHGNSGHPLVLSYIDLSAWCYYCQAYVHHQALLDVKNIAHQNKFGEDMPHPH
Experiment: HDAC6 enzyme activity inhibition (HDAC Fluorimetric Drug Discovery Kit)
Format: biochemical
Settings: human recombinant HDAC6; IC50 calculated with GraphPad Prism
VALUE KIND: IC50
Answer format: number, then unit.

Look over these answered cases.
{"columns": ["ITEM SMILES", "VALUE KIND", "MEASURED RESULT"],
 "data": [
  ["CC(C)(N)C(=O)Nc1cccc(-c2cn(Cc3ccc(-c4nnc(C(F)F)o4)cn3)nn2)c1", "IC50", "13.3 nM"],
  ["CN1CCN(c2ccccc2-c2cn(Cc3ccc(-c4nnc(C(F)F)o4)cn3)nn2)CC1", "IC50", "57 nM"],
  ["CC(=O)N1CCC(Nc2ccc(F)c(-c3cn(Cc4ccc(-c5nnc(C(F)F)o5)cc4F)nn3)c2)CC1", "IC50", "83.3 nM"],
  ["FC(F)c1nnc(-c2ccc(Cn3cc(-c4cccc(N5C[C@@H]6C[C@H]5CN6C5CCC5)c4)nn3)cc2)o1", "IC50", "94 nM"]
]}

Query: IC50; subject: CN1C[C@@H]2C[C@H]1CN2c1cccc(-c2cn(Cc3ccc(-c4nnc(C(F)F)o4)cc3F)nn2)c1
36.4 nM

So what's the measured IC50 for this one? CN1CCN(Cc2cccc(-c3cn(Cc4ccc(-c5nnc(C(F)F)o5)cc4)nn3)c2)CC1
79.7 nM

Please give the measured IC50 for this compound: CC(=O)N1CCC(F)(c2cn(Cc3ccc(-c4nnc(C(F)F)o4)cn3)nn2)CC1
123 nM
